Cited source for all entries: PubChem BioAssay (NCI)

System: SR leukemia
Assay: NCI tumour cell line growth inhibition, 48 h; in the data active means GI50 below about 0.43 µM; inactive means the rest
Permitted responses: active, inactive

For O=C(CCCCN1CCOCC1)Nc1ccc(Cn2nnc3c2C(=O)c2nnn(Cc4ccc(NC(=O)CCCCN5CCOCC5)cc4)c2C3=O)cc1 , which call appears in the assay record? active

Outcome logged for Nn1c2c(c3ccccc3c1=O)C(=O)c1ccccc1-2 in this assay: inactive

In this assay, the call recorded for Cn1cc(-c2ccc(-c3cn(C)c4ccc(Cl)cc34)[nH]2)c2cc(Cl)ccc21 was what? inactive

I'd appreciate the recorded outcome for Cc1ccc(Cl)cc1-c1nc(N)nc(Nc2ccc(Br)cc2)n1 from this test. active

For COC(=O)C1=CN(CC2=CC(=O)C(C)=CC2=O)C=C(C(=O)OC)C1c1cc(OC)ccc1OC , what call appears in the results of this test? inactive

Hi, do you know how CC(O)CCc1ccc(Oc2c3ccccc3nc3occc23)cc1 (stereo not given) came out in this test? inactive

Give the logged outcome of this assay for the following compound: O=[N+]([O-])c1ccc2c(c1)C(=NO)c1cc([N+](=O)[O-])ccc1-2 inactive

For COc1ccc(N2CCN(C(=O)c3ccc(C(F)(F)F)nc3Nc3cc(Cl)ccc3C)CC2)cc1 , what call appears in the results of this test? inactive

What classification did CCCCCCCC(=O)SCC/C=C/[C@@H]1CC(=O)NCc2cccc(n2)CN(Cc2ccc3ccccc3c2)CC(=O)N[C@@H](C(C)C)C(=O)O1 end up with in this test? inactive

Each compound tested received a call. Report the one for CC(C)C[C@H](NC(=O)Cn1ccc(Nc2ccccc2)cc1=O)B(O)O . active
